# Test system: H9c2 cardiomyocytes, 2-deoxyglucose stress, ATP luminescence, 2 h
# Assay Method Text: H9c2 cell survival under 2-deoxyglucose stress – uHTS hits, dose response (AID 588780)
Activity calls are given as the source filed them.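 The calls were made as follows: active = compounds whose fitted half-maximal concentration in the cell-protection dose series is at or below a set limit; inactive = the rest.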
Please answer using one outcome listed in active, inactive

O=C(COC(=O)c1ccc([N+](=O)[O-])o1)Nc1ccc(N2CCOCC2)cc1	inactive
CCOC(=O)CNC(=O)CSc1nc2nc(C)c(Br)cc2[nH]1	inactive
O=C(CCc1nc2ccccc2c(=O)[nH]1)Nc1ccc(F)c([N+](=O)[O-])c1	active
CN(CC(=O)Nc1ccccc1Cl)C(=O)CCc1nc2ccccc2c(=O)[nH]1	inactive

Problem: Would you mind telling me which call this test gave Cc1cc2[nH]c(=O)c3ccccc3n2n1 ?
Result: inactive

Problem: Would you mind telling me which call this test gave Cc1ccc2c(c1)CCCN2C(=O)CCc1nc2ccccc2c(=O)[nH]1 ?
Result: active

Problem: Would you mind telling me which call this test gave O=C(N/N=C/c1ccccn1)c1cccc([N+](=O)[O-])c1 ?
Result: inactive

Problem: Would you mind telling me which call this test gave Cc1cc(C)cc(OCC(=O)Nc2cccc(-c3nc4ncccc4o3)c2)c1 ?
Result: inactive

Problem: Would you mind telling me which call this test gave O=C(Nc1ccccc1C(=O)Nc1ccccc1C(=O)NCc1ccco1)c1ccco1 ?
Result: active

Problem: Would you mind telling me which call this test gave CCN(CC(=O)Nc1c(F)cccc1F)C(=O)Cc1n[nH]c(=O)c2ccccc12 ?
Result: inactive

====

# System: H9c2 cardiomyocytes, 2-deoxyglucose stress, ATP luminescence, 2 h
# Assay Method Text: H9c2 cell survival under 2-deoxyglucose stress – uHTS hits, dose response (AID 588780)
Active and inactive are the calls of the source.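 Rule for the calls: active = compounds whose fitted half-maximal concentration in the cell-protection dose series is at or below a set limit; inactive = the rest.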
Please answer using one outcome listed in TRUE = active, FALSE = inactive

Previously resolved entries follow.
CCNC(=O)/C(C#N)=C/c1c(N(Cc2ccccc2)Cc2ccccc2)nc2ccccn2c1=O	TRUE
COc1cccc(-c2ccc(SCC(=O)N3CCN(c4ccccc4)CC3)nn2)c1	FALSE
O=C(CCc1nc2ccccc2c(=O)[nH]1)N1CCCc2ccccc21	FALSE

Problem: Would you mind telling me which call this test gave CCOC(=O)c1ccc(-c2ccc(/C=C(\C#N)C(=O)NCC3CCCO3)o2)cc1 (stereo not given) ?
Result: FALSE

Problem: Would you mind telling me which call this test gave COc1c(O)cccc1/C=N/NC(=O)Cn1ccnc1C ?
Result: FALSE

Problem: Would you mind telling me which call this test gave COc1cccc(NC(=O)NC2(C(F)(F)F)Oc3ccccc3O2)c1 ?
Result: TRUE

Problem: Would you mind telling me which call this test gave O=C(CCc1nc2ccccc2c(=O)[nH]1)OCCOc1ccc(Cl)cc1 ?
Result: FALSE

Problem: Would you mind telling me which call this test gave CCN(CC(=O)Nc1ccc(OC)cc1)C(=O)CCc1nc2ccccc2c(=O)[nH]1 ?
Result: FALSE

Problem: Would you mind telling me which call this test gave CCCC(c1nnnn1C(C)(C)CC)N(CCCO)Cc1cc2cc(C)cc(C)c2[nH]c1=O (stereo not given) ?
Result: FALSE

Problem: Would you mind telling me which call this test gave O=C(Nc1nc(-c2ccccn2)cs1)c1ccc(-c2ccccc2F)o1 ?
Result: FALSE

====

# Test system: H9c2 cardiomyocytes, 2-deoxyglucose stress, ATP luminescence, 2 h
# Assay Method Text: H9c2 cell survival under 2-deoxyglucose stress – uHTS hits, dose response (AID 588780)
Calls of active or inactive are those of the source.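 How the source made its calls: active means compounds whose fitted half-maximal concentration in the cell-protection dose series is at or below a set limit; inactive means the rest.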
Observation Type: IC50

Cc1ccc(NC(=O)c2cc(=O)c3ccccc3o2)cc1S(=O)(=O)N1CCOCC1	35.4 µM (inactive)
CN(C(=O)CSc1nc2c(c(=O)[nH]1)CCCC2)C1CCCCC1	> 79 µM (inactive)
CC(=O)c1ccc(N2CCN(C(=O)C3CCCN(c4ncnc5c4nc4n5CCCCC4)C3)CC2)cc1 (stereo not given)	17.5 µM
COc1ccc(NC(=O)CN(C)C(=O)Cc2n[nH]c(=O)c3ccccc23)cc1	> 79 µM (inactive)
COc1cc(C(=O)N/N=C/c2sc(N3CCOCC3)nc2-c2ccccc2)cc(OC)c1OC	25.8 µM

The molecule identified as CCc1nnc(NC(=O)CSc2nnc(CNc3ccc(OC)cc3)n2C)s1 registered its IC50 at > 79 µM (inactive)

The molecule identified as COC(=O)c1cccc(S(=O)(=O)N(Cc2ccco2)Cc2cc3cc(OC)ccc3[nH]c2=O)c1 registered its IC50 at > 79 µM (inactive)

The molecule identified as Cc1cc(-c2nn3c(-c4ccccc4)nnc3s2)c2ccccc2n1 registered its IC50 at > 79 µM (inactive)

The molecule identified as CC(=O)c1cccc(NC(=O)Nc2ccc3c(c2)N(C)C(=O)CS3)c1 registered its IC50 at > 79 µM (inactive)

The molecule identified as COc1ccc(CN(C)C(=O)C(Cc2ccccc2)NC(=O)c2ccccc2)cc1F (stereo not given) registered its IC50 at 7.05 µM

====

# System: H9c2 cardiomyocytes, 2-deoxyglucose stress, ATP luminescence, 2 h
# Assay Method Text: H9c2 cell survival under 2-deoxyglucose stress – uHTS hits, dose response (AID 588780)
The source made the active and inactive calls.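 The calls were made as follows: active = compounds whose fitted half-maximal concentration in the cell-protection dose series is at or below a set limit; inactive = the rest.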
Please answer using one outcome listed in class 1 (active), class 0 (inactive)

Previously resolved entries follow.
COc1ccc(-c2ccc(Nc3ccc(S(=O)(=O)N4CCCC4)cc3)nn2)cc1OC	class 1
CCOc1ccc(C(C(=O)NC2CCCC2)N(C(=O)c2snc(C(N)=O)c2N)c2cccc(O)c2)cc1 (stereo not given)	class 0

Problem: Would you mind telling me which call this test gave CCOC(=O)C1CCCN(C(=O)CCC(=O)Nc2ccc3nc(N4CCOCC4)cc(C)c3c2)C1 (stereo not given) ?
Result: class 1

Problem: Would you mind telling me which call this test gave CC(OC(=O)c1cc2c(ccc3ccccc32)oc1=O)c1nc2ccccc2s1 (stereo not given) ?
Result: class 1

Problem: Would you mind telling me which call this test gave COc1ccc(NCc2cc3ccccc3[nH]c2=O)cc1 ?
Result: class 0

====

# Tested on: H9c2 cardiomyocytes, 2-deoxyglucose stress, ATP luminescence, 2 h
# Assay Method Text: H9c2 cell survival under 2-deoxyglucose stress – uHTS hits, dose response (AID 588780)
Calls of active or inactive are those of the source.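 How the source made its calls: active means compounds whose fitted half-maximal concentration in the cell-protection dose series is at or below a set limit; inactive means the rest.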
Please answer using one outcome listed in label 1 (active), label 0 (inactive)

COc1ccc(OC)c(Nc2nc(N)c([N+](=O)[O-])c(N3CCOCC3)n2)c1	label 1

Problem: Would you mind telling me which call this test gave CCOc1ccc2ccccc2c1C(=O)N[C@@H]1C(=O)N2[C@@H]1SC(C)(C)[C@@H]2C(=O)O ?
Result: label 0

Problem: Would you mind telling me which call this test gave COc1cc(-c2ccc3oc(-c4ccsc4)cc(=O)c3c2)cc(OC)c1OC ?
Result: label 0

Problem: Would you mind telling me which call this test gave O=C(NCCc1ccccc1Cl)c1ccc2nc3ccccc3c(=O)n2c1 ?
Result: label 1

Problem: Would you mind telling me which call this test gave CC(=O)Nc1cccc(NC(=O)c2cc(-c3cccnc3)nc3ccc(Br)cc23)c1 ?
Result: label 0

Problem: Would you mind telling me which call this test gave CN(C)C(=O)c1ccc(-c2n[nH]c(=O)c3ccccc23)cc1 ?
Result: label 0

Problem: Would you mind telling me which call this test gave NC(=O)c1ccc(NC(=O)COc2cccc3c2CCNC3=O)cc1 ?
Result: label 0

Problem: Would you mind telling me which call this test gave O=C(Nc1cccc(-c2nc3cccnc3s2)c1)c1ccco1 ?
Result: label 0

Problem: Would you mind telling me which call this test gave CCN(CC(=O)Nc1cc(Cl)ccc1C)C(=O)C1CCN(c2ncnc3sc(C)c(C)c23)CC1 ?
Result: label 0

Problem: Would you mind telling me which call this test gave CC(Oc1cccc(Br)c1)C(=O)NNC(=O)c1ccccn1 (stereo not given) ?
Result: label 0

Problem: Would you mind telling me which call this test gave Cc1nnc2ccc(-c3cccc(NC(=O)c4ccc(Cl)nc4)c3)nn12 ?
Result: label 1

====

# System: H9c2 cardiomyocytes, 2-deoxyglucose stress, ATP luminescence, 2 h
# Assay Method Text: H9c2 cell survival under 2-deoxyglucose stress – uHTS hits, dose response (AID 588780)
The source made the active and inactive calls.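 Rule for the calls: active = compounds whose fitted half-maximal concentration in the cell-protection dose series is at or below a set limit; inactive = the rest.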
Please answer using one outcome listed in Yes = active, No = inactive

Problem: Would you mind telling me which call this test gave Cc1ccc(CNC(=O)CCc2nc3ccccc3c(=O)[nH]2)cc1 ?
Result: Yes

Problem: Would you mind telling me which call this test gave Cc1cc(O)c(C=Nc2ccc(N3CCOCC3)cc2)c(C)c1Cl ?
Result: No

Problem: Would you mind telling me which call this test gave Cc1ccc(CN(C)C(=O)COC(=O)CSc2ccc(C(N)=O)cc2[N+](=O)[O-])cc1 ?
Result: No

====

# Tested on: H9c2 cardiomyocytes, 2-deoxyglucose stress, ATP luminescence, 2 h
# Assay Method Text: H9c2 cell survival under 2-deoxyglucose stress – uHTS hits, dose response (AID 588780)
The source made the active and inactive calls.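 Rule for the calls: active = compounds whose fitted half-maximal concentration in the cell-protection dose series is at or below a set limit; inactive = the rest.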
Please answer using one outcome listed in Yes for active, No for inactive

COc1ccc(C(=O)COc2ccccc2C(N)=O)cc1	No
Cn1c(NCc2ccco2)nc2c1c(=O)n(Cc1ccc(Cl)cc1)c(=O)n2C	No
C[C@H]1Cn2cnc(C(=O)N[C@@H](Cc3c[nH]c4ccccc34)C(=O)OC(C)(C)C)c2C(=O)N1	Yes

Problem: Would you mind telling me which call this test gave Cc1noc(C)c1Cn1nc(C(=O)O)c2ccccc2c1=O ?
Result: No

Problem: Would you mind telling me which call this test gave COc1ccc(-c2cc(NC(C)=O)c3ncc(-c4ccc(OC)c(OC)c4)n3c2)cc1OC ?
Result: No

Problem: Would you mind telling me which call this test gave CC(Oc1cccc(Cl)c1)C(=O)Nc1nc(-c2ccccn2)cs1 (configuration not stated) ?
Result: No

Problem: Would you mind telling me which call this test gave CC(OC(=O)Cc1n[nH]c(=O)c2ccccc12)C(=O)Nc1ccccc1[N+](=O)[O-] (configuration not stated) ?
Result: No

Problem: Would you mind telling me which call this test gave O=C(NNC(=O)c1cc2cc(Br)ccc2oc1=O)c1ccc(O)cc1O ?
Result: No
